Assay: Inhibition of voltage sensitive calcium channel of embryonic chick dorsal root ganglion (DRG) cells
measured_quantity: IC50 (µM)
Enter your answer as a number in µM; do not include the unit.

I'd like to know its IC50. The compound in question is COc1ccc(OC)c(-n2c(N)nc3cc(C(F)(F)F)ccc32)c1
32
